Entries and their inhibition
target: Hypoxia inducible factors; HIF-1-alpha, HIF-2-alpha (Homo sapiens, UniProt Q16665+Q99814); experiment: Inhibition of HIF1 in human HEK293T cells transfected with pGL3-5HRE-VEGF and pRL-SV40 after 24 hrs by dual luciferase reporter assay relative to normoxic condition; type: cell-based; design: concentration or dose not given beside the values; details: HEK-293T, concentration not given here
recorded_metric: inhibition (%)

[
  {
    "structure": "COc1cc([C@H]2O[C@H](c3ccc(O[C@H](C)C(=O)c4ccccc4)c(OC)c3)[C@H](C)[C@H]2C)ccc1O[C@H](C)C(=O)c1ccccc1",
    "measure_unit": "%",
    "observed_value": 101
  },
  {
    "structure": "COc1ccc(C(=O)[C@@H](C)Oc2ccc([C@H]3O[C@H](c4ccc(OC)c(OC)c4)[C@H](C)[C@H]3C)cc2OC)cc1OC",
    "measure_unit": "%",
    "observed_value": 82
  },
  {
    "structure": "COc1ccc(C(=O)COc2cc(C(=O)[C@@H](C)Oc3ccc([C@H]4O[C@H](c5ccc(O[C@H](C)C(=O)c6ccc(OC)c(OCC(=O)c7ccc(OC)c(OC)c7)c6)c(OC)c5)[C@H](C)[C@H]4C)cc3OC)ccc2OC)cc1OC",
    "measure_unit": "%",
    "observed_value": 36
  },
  {
    "structure": "COc1ccc(C(=O)COc2ccc([C@H]3O[C@H](c4ccc(OCC(=O)c5ccc(OC)c(OC)c5)c(OC)c4)[C@H](C)[C@H]3C)cc2OC)cc1OC",
    "measure_unit": "%",
    "observed_value": 93
  },
  {
    "structure": "COc1ccc(C(=O)[C@@H](C)Oc2ccc([C@H]3O[C@H](c4ccc(O[C@H](C)C(=O)c5ccc(OC)c(OC)c5)c(OC)c4)[C@H](C)[C@H]3C)cc2OC)cc1OC",
    "measure_unit": "%",
    "observed_value": 114
  },
  {
    "structure": "COc1ccc(CCOc2ccc([C@H]3O[C@H](c4ccc(OCCc5ccc(OC)c(OC)c5)c(OC)c4)[C@H](C)[C@H]3C)cc2OC)cc1OC",
    "measure_unit": "%",
    "observed_value": 64
  },
  {
    "structure": "COc1cc([C@H]2O[C@H](c3ccc(O[C@H](C)[C@H](O)c4ccccc4)c(OC)c3)[C@H](C)[C@H]2C)ccc1O[C@H](C)[C@H](O)c1ccccc1",
    "measure_unit": "%",
    "observed_value": 79
  },
  {
    "structure": "COc1ccc(C(=O)[C@@H](C)Oc2ccc([C@H]3O[C@H](c4ccc(O[C@H](C)C(=O)c5ccc(OC)c(O)c5)c(OC)c4)[C@H](C)[C@H]3C)cc2OC)cc1O",
    "measure_unit": "%",
    "observed_value": 78
  },
  {
    "structure": "COc1ccc([C@H](COc2ccc([C@H]3O[C@H](c4ccc(OC[C@H](OC)c5ccc(OC)c(OC)c5)c(OC)c4)[C@H](C)[C@H]3C)cc2OC)OC)cc1OC",
    "measure_unit": "%",
    "observed_value": 87
  }
]

Numbers sourced from ChEMBL document CHEMBL3621119.
